Tested System: Gal4 DNA binding domain fused to the LBD of LXRα in HEK293 cells (Homo sapiens (Human))
Sequence (Q13133 209-447): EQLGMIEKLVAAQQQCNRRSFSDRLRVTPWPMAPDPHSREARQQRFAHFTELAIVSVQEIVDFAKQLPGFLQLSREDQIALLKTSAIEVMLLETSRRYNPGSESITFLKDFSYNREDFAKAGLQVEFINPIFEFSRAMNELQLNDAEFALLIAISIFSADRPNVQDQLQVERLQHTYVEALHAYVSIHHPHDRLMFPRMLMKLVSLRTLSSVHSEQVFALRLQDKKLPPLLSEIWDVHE
Method Description: LXR luciferase transcriptional reporter gene assay, antagonist mode (200 nM T0901317), LXRα
Assay type: cell-based
Cell LXRα efficacy for assorted compounds
Readout Label: Cell LXRα efficacy

- Compound: "CS(=O)(=O)c1cccc(N2CCN(CC3CCN(CC(F)(F)F)CC3)[C@@H](c3ccccc3)C2)c1 (single isomer, unassigned) [48-52]"
  Tested System: "Gal4 DNA binding domain fused to the LBD of LXRα in HEK293 cells (Homo sapiens (Human))"
  Readout Label: "Cell LXRα efficacy"
  Assay Value: "4773 (89) %"
- Compound: "CNS(=O)(=O)c1cc(N2CCN(c3ncc(C(C)(C)O)c(C(F)(F)F)n3)[C@H](C(C)C)C2)ccc1F [10-3]"
  Tested System: "Gal4 DNA binding domain fused to the LBD of LXRα in HEK293 cells (Homo sapiens (Human))"
  Readout Label: "Cell LXRα efficacy"
  Assay Value: "2003 (83) %"
- Compound: "C[C@]1(c2ccccc2)CN(c2cccc(S(C)(=O)=O)c2)CCN1Cc1ccc(C(F)(F)F)c(Cl)c1 (single isomer, unassigned) [46-34]"
  Tested System: "Gal4 DNA binding domain fused to the LBD of LXRα in HEK293 cells (Homo sapiens (Human))"
  Readout Label: "Cell LXRα efficacy"
  Assay Value: "7451 (87) %"
- Compound: "CS(=O)(=O)c1cccc(N2CCN(C[C@H]3CC[C@H](C(F)(F)F)CC3)[C@@H](c3ccccc3)C2)c1 (single isomer, unassigned) [48-33]"
  Tested System: "Gal4 DNA binding domain fused to the LBD of LXRα in HEK293 cells (Homo sapiens (Human))"
  Readout Label: "Cell LXRα efficacy"
  Assay Value: "5224 (46) %"
- Compound: "CCOC(=O)CCN(C)C(=O)c1cnc(N2CCN(c3ccc(F)c(S(C)(=O)=O)c3)C[C@H]2C(C)C)nc1C(F)(F)F [17-18]"
  Tested System: "Gal4 DNA binding domain fused to the LBD of LXRα in HEK293 cells (Homo sapiens (Human))"
  Readout Label: "Cell LXRα efficacy"
  Assay Value: "1159 (92) %"
- Compound: "CS(=O)(=O)c1cccc(N2CCN(C[C@@H]3CCC[C@@H](C(F)(F)F)C3)[C@@H](c3ccc(F)cc3)C2)c1 (single isomer, unassigned) [48-39]"
  Tested System: "Gal4 DNA binding domain fused to the LBD of LXRα in HEK293 cells (Homo sapiens (Human))"
  Readout Label: "Cell LXRα efficacy"
  Assay Value: "78 (86) %"
- Compound: "CC1(C)CCC(CN2CCN(c3cccc(S(C)(=O)=O)c3)C[C@@H]2c2ccccc2)CC1 [Cpd No 48-4]"
  Tested System: "Gal4 DNA binding domain fused to the LBD of LXRα in HEK293 cells (Homo sapiens (Human))"
  Readout Label: "Cell LXRα efficacy"
  Assay Value: "6447 (79) %"
- Compound: "CS(=O)(=O)c1cccc(N2CCN(C[C@H]3CC[C@@H](C(F)(F)F)CC3)[C@@H](c3ccccc3)C2)c1 (single isomer, unassigned) [48-31]"
  Tested System: "Gal4 DNA binding domain fused to the LBD of LXRα in HEK293 cells (Homo sapiens (Human))"
  Readout Label: "Cell LXRα efficacy"
  Assay Value: "6705 (128) %"
- Compound: "CS(=O)(=O)c1cccc(N2CCN(Cc3ccc(C(F)(F)F)cc3)[C@@H](c3ccc(F)cc3)C2)c1 [46-24]"
  Tested System: "Gal4 DNA binding domain fused to the LBD of LXRα in HEK293 cells (Homo sapiens (Human))"
  Readout Label: "Cell LXRα efficacy"
  Assay Value: "3139 (51) %"
- Compound: "CC(C)[C@@H]1CN(c2ccc(CO)c(S(C)(=O)=O)c2)CCN1c1ncc(C(N)=O)c(C(F)(F)F)n1 [Cpd No 17-25]"
  Tested System: "Gal4 DNA binding domain fused to the LBD of LXRα in HEK293 cells (Homo sapiens (Human))"
  Readout Label: "Cell LXRα efficacy"
  Assay Value: "3652 (98) %"
- Compound: "CS(=O)(=O)c1cccc(N2CCN(C[C@H]3C[C@@H]4[C@H](C3)C4(F)F)[C@@H](c3ccccc3)C2)c1 [48-64]"
  Tested System: "Gal4 DNA binding domain fused to the LBD of LXRα in HEK293 cells (Homo sapiens (Human))"
  Readout Label: "Cell LXRα efficacy"
  Assay Value: "4272 (104) %"
- Compound: "CS(=O)(=O)c1cccc(N2CCN(Cc3ccc(C(F)(F)F)c(F)c3)[C@@H](c3ccccc3)C2)c1 (single isomer, unassigned) [46-26]"
  Tested System: "Gal4 DNA binding domain fused to the LBD of LXRα in HEK293 cells (Homo sapiens (Human))"
  Readout Label: "Cell LXRα efficacy"
  Assay Value: "7585 (36) %"
- Compound: "NS(=O)(=O)c1cccc(N2CCN(C[C@H]3CC[C@@H](C(F)(F)F)CC3)[C@@H](c3ccccc3)C2)c1 (single isomer, unassigned) [48-35]"
  Tested System: "Gal4 DNA binding domain fused to the LBD of LXRα in HEK293 cells (Homo sapiens (Human))"
  Readout Label: "Cell LXRα efficacy"
  Assay Value: "7574 (100) %"

---

Cell LXRβ efficacy for assorted compounds
Tested System: Gal4 DNA binding domain fused to the LBD of LXRβ in HEK293 cells (Homo sapiens (Human), UniProt P55055)
Sequence (P55055 222-460 limits assumed): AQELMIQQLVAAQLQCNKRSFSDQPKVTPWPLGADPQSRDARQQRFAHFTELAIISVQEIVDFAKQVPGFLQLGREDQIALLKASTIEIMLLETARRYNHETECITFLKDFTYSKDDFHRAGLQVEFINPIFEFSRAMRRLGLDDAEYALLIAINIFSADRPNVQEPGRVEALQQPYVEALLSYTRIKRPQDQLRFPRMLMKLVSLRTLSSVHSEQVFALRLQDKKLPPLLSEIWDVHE
Method Description: cell-based
Experimental Conditions: agonist mode
Readout Label: Cell LXRβ efficacy

- Compound: "CS(=O)(=O)c1cc(N2CCN(C[C@H]3CC[C@@H](C(F)(F)F)CC3)[C@@H](c3ccccc3)C2)ccc1C(N)=O (single isomer, unassigned) [17-39]"
  Readout Label: "Cell LXRβ efficacy"
  Assay Value: "26%"
- Compound: "CNS(=O)(=O)c1cc(N2CCN(c3ncc(C(C)(C)O)c(C(F)(F)F)n3)[C@H](C(C)C)C2)ccc1F [10-3]"
  Readout Label: "Cell LXRβ efficacy"
  Assay Value: "69 (24) %"
- Compound: "CC(C)[C@@H]1CN(c2cccc(S(C)(=O)=O)c2)CCN1c1ncc(OC(F)F)cn1 [7-11]"
  Readout Label: "Cell LXRβ efficacy"
  Assay Value: "1198 (48) %"
- Compound: "CC(C)[C@@H]1CN(c2ccc(Cl)c(S(C)(=O)=O)c2)CCN1c1ncc(CO)c(C(F)(F)F)n1 [11-3]"
  Readout Label: "Cell LXRβ efficacy"
  Assay Value: "95 (44) %"
- Compound: "CS(=O)(=O)c1cccc(N2CCN(Cc3ccc(C(F)(F)F)cc3)[C@@H](c3ccc(F)cc3)C2)c1 [46-24]"
  Readout Label: "Cell LXRβ efficacy"
  Assay Value: "636 (27) %"
- Compound: "CC(C)[C@@H]1CN(c2cc(S(C)(=O)=O)c(CO)cc2F)CCN1c1ncc(C(N)=O)c(C(F)(F)F)n1 [17-29]"
  Readout Label: "Cell LXRβ efficacy"
  Assay Value: "142 (17) %"
- Compound: "CC(C)[C@@H]1CN(c2ccc(F)c(S(C)(=O)=O)c2)CCN1c1nc2ccc(C#N)cc2s1 [7-53]"
  Readout Label: "Cell LXRβ efficacy"
  Assay Value: "350 (26) %"
- Compound: "CC(=O)c1cnc(N2CCN(c3ccc(F)c(S(C)(=O)=O)c3)C[C@H]2C(C)C)nc1C(F)(F)F [Cpd No 13-1]"
  Readout Label: "Cell LXRβ efficacy"
  Assay Value: "49 (51) %"
- Compound: "CCOC(=O)c1cnc(N2CCN(c3cccc(S(C)(=O)=O)c3)C[C@H]2c2nc(C)cs2)nc1C(F)(F)F [9-8]"
  Readout Label: "Cell LXRβ efficacy"
  Assay Value: "2469 (14) %"
- Compound: "CS(=O)(=O)c1cc(N2CCN(C[C@H]3CC[C@@H](C(F)(F)F)CC3)[C@H](c3ccccc3)C2)ccc1C(N)=O (single isomer, unassigned) [17-38]"
  Readout Label: "Cell LXRβ efficacy"
  Assay Value: "18%"
- Compound: "CS(=O)(=O)c1cc(F)cc(N2CCN(Cc3ccc(C(F)(F)F)nc3)C(c3ccccc3)C2)c1 (centres unmarked) [46-53]"
  Readout Label: "Cell LXRβ efficacy"
  Assay Value: "3280 (28) %"
- Compound: "CC(C)[C@@H]1CN(c2cccc(S(C)(=O)=O)c2)CCN1C(=O)OC(C)(C)C [1-1]"
  Readout Label: "Cell LXRβ efficacy"
  Assay Value: "467 (34) %"
- Compound: "Cc1cc(C#N)nc(N2CCN(c3ccc(F)c(S(C)(=O)=O)c3)C[C@H]2C(C)C)n1 [7-8]"
  Readout Label: "Cell LXRβ efficacy"
  Assay Value: "1521 (21) %"
- Compound: "CNC(=O)c1cnc(N2CCN(c3ccc(F)c(S(C)(=O)=O)c3)C[C@H]2C(C)C)nc1C(F)(F)F [17-3]"
  Readout Label: "Cell LXRβ efficacy"
  Assay Value: "448 (18) %"
- Compound: "CC(C)[C@@H]1CN(c2cccc(S(C)(=O)=O)c2)CCN1c1ccc(C(C)(F)F)cn1 [20-2]"
  Readout Label: "Cell LXRβ efficacy"
  Assay Value: "706 (43) %"
- Compound: "CC(C)(O)CC1CN(c2ccc(F)c(S(C)(=O)=O)c2)CCN1c1ccc(C(F)(F)F)cn1 (centres unmarked) [34-1]"
  Readout Label: "Cell LXRβ efficacy"
  Assay Value: "670 (83) %"
- Compound: "CCOC(=O)c1cnc(N2CCN(c3ccc(-c4nnc(C)o4)c(S(C)(=O)=O)c3)C[C@H]2C(C)C)nc1C(F)(F)F [9-11]"
  Readout Label: "Cell LXRβ efficacy"
  Assay Value: "869 (9) %"
- Compound: "CC(C)[C@@H]1CN(c2ccc(F)c(S(N)(=O)=O)c2)CCN1c1ncc(C(C)(C)O)c(C(F)(F)F)n1 [10-2]"
  Readout Label: "Cell LXRβ efficacy"
  Assay Value: "475 (39) %"
- Compound: "CC(C)[C@@H]1CN(c2ccc(F)c(S(C)(=O)=O)c2)CCN1c1ncc(CN2CC(O)C2)c(C(F)(F)F)n1 [15-4]"
  Readout Label: "Cell LXRβ efficacy"
  Assay Value: "182 (13) %"
- Compound: "Cc1nnc(-c2ccc(N3CCN(c4ncc(CO)c(C(F)(F)F)n4)[C@H](C(C)C)C3)cc2S(C)(=O)=O)o1 [11-9]"
  Readout Label: "Cell LXRβ efficacy"
  Assay Value: "603 (39) %"
- Compound: "CC(C)[C@@H]1CN(c2ccc(F)c(S(C)(=O)=O)c2)CCN1c1ncc(C#N)c(C(F)(F)F)n1 [7-21]"
  Readout Label: "Cell LXRβ efficacy"
  Assay Value: "152 (65) %"
- Compound: "CC(C)[C@H]1CN(c2ccc(C#N)c(S(C)(=O)=O)c2)CCN1Cc1ccc(C(F)(F)F)cc1 [46-9]"
  Readout Label: "Cell LXRβ efficacy"
  Assay Value: "1078 (49) %"
- Compound: "CS(=O)(=O)c1cccc(N2CCN(c3nccc(C(F)(F)F)n3)[C@H](c3ccc(F)cc3)C2)c1 [8-1]"
  Readout Label: "Cell LXRβ efficacy"
  Assay Value: "493 (31) %"
- Compound: "CC(C)[C@@H]1CN(c2ccc(F)c(S(C)(=O)=O)c2)CCN1c1nccc(CO)n1 [11-15]"
  Readout Label: "Cell LXRβ efficacy"
  Assay Value: "2479 (33) %"
- Compound: "CC(C)[C@@H]1CN(c2ccc(F)c(S(C)(=O)=O)c2)CCN1c1ncc(CN2CCOCC2)c(C(F)(F)F)n1 [Cpd No 15-5]"
  Readout Label: "Cell LXRβ efficacy"
  Assay Value: "36 (3) %"
- Compound: "CS(=O)(=O)c1cc(N2CCN(C[C@H]3CC[C@H](C(F)(F)F)CC3)[C@H](c3ccccc3)C2)ccc1CO (single isomer, unassigned) [48-44]"
  Readout Label: "Cell LXRβ efficacy"
  Assay Value: "34%"
- Compound: "CC(C)(F)CC1CN(c2ccc(F)c(S(C)(=O)=O)c2)CCN1c1ccc(C(F)(F)F)cn1 (centres unmarked) [35-1]"
  Readout Label: "Cell LXRβ efficacy"
  Assay Value: "499 (88) %"
- Compound: "Cc1csc(-c2ccc(N3CCN(c4ncc(CO)c(C(F)(F)F)n4)[C@H](C(C)C)C3)cc2S(C)(=O)=O)n1 [Cpd No 28-1]"
  Readout Label: "Cell LXRβ efficacy"
  Assay Value: "11 (79) %"
- Compound: "CC(C)[C@@H]1CN(c2ccc(F)c(S(C)(=O)=O)c2)CCN1c1ncc(CN(C)C)c(C(F)(F)F)n1 [15-3]"
  Readout Label: "Cell LXRβ efficacy"
  Assay Value: "74 (17) %"
